SYSTEM_NAME: Type-A CCK receptor (Cavia porcellus)
Construct: Cortical and pancreatic membranes were prepared as described; from tissue; host or cells: guinea pig pancreas membranes
Sequence (Q63931 whole entry): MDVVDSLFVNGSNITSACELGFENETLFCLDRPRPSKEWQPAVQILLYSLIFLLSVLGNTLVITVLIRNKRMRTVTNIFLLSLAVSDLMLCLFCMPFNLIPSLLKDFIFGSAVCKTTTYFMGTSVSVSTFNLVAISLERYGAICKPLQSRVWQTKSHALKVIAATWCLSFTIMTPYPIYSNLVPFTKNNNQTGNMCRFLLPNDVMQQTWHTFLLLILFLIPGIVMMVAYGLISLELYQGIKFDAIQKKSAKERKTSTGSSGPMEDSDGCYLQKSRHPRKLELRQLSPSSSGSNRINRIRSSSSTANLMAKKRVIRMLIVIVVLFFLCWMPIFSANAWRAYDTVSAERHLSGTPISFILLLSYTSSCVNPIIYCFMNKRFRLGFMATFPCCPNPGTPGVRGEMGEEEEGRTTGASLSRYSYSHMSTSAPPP
ASSAY_EXPLANATION: Radioligand binding of [125I]BH-CCK-8 in guinea pig pancreatic membrane preparations
RUN_CONDITIONS: IC50 (nM) 125I-BH-CCK-8 Type-A receptor, guinea pig pancreatic membranes, 37° C., 150 min
*1 amine or outer side, *2 acyl side, *3 side chain or, on linkers, in order; H or OH if unused. Where a SMILES comes first, the peptide text is derived from it. Side-chain parts run from the residue outwards. [ ]: non-standard residue; d: D form. The star is where a group is joined. Isopropoxycarbonyl = CC(C)OC(=O)*; NMeF = CN[C@@H](Cc1ccccc1)C(=O)O; NH(2-Me-phenyl) = Cc1ccccc1N*; CO = O=C([*:1])[*:2]; NHPh = c1ccc(N*)cc1
REPORTED_PROPERTY: IC50 (nM)
Kindly provide the numeric value in nM only, without the unit symbol.

Ask: // fetch Type-A CCK receptor (Cavia porcellus) IC50 for Cc1ccccc1NC(=O)NCCCC[C@H](NC(=O)[C@H](Cc1c[nH]c2ccccc12)NC(=O)OC(C)C)C(=O)N[C@@H](CC(=O)O)C(=O)N(C)[C@@H](Cc1ccccc1)C(N)=O [Example 78] (Isopropoxycarbonyl-WK([CO-NH(2-Me-phenyl)])D[NMeF]-NH2)
Result: 1.6

Ask: // fetch Type-A CCK receptor (Cavia porcellus) IC50 for Cc1ccccc1NC(=O)NCCCC[C@H](NC(=O)[C@H](Cc1c[nH]c2ccccc12)NC(=O)Nc1ccccc1)C(=O)N[C@@H](CC(=O)O)C(=O)N(C)[C@@H](Cc1ccccc1)C(N)=O [Example 84] ({NHPh-CO}-WK([CO-NH(2-Me-phenyl)])D[NMeF]-NH2)
Result: 3
